- assay_target: PLK4 (Homo sapiens, UniProt O00444)
- Sequence (O00444 1-970): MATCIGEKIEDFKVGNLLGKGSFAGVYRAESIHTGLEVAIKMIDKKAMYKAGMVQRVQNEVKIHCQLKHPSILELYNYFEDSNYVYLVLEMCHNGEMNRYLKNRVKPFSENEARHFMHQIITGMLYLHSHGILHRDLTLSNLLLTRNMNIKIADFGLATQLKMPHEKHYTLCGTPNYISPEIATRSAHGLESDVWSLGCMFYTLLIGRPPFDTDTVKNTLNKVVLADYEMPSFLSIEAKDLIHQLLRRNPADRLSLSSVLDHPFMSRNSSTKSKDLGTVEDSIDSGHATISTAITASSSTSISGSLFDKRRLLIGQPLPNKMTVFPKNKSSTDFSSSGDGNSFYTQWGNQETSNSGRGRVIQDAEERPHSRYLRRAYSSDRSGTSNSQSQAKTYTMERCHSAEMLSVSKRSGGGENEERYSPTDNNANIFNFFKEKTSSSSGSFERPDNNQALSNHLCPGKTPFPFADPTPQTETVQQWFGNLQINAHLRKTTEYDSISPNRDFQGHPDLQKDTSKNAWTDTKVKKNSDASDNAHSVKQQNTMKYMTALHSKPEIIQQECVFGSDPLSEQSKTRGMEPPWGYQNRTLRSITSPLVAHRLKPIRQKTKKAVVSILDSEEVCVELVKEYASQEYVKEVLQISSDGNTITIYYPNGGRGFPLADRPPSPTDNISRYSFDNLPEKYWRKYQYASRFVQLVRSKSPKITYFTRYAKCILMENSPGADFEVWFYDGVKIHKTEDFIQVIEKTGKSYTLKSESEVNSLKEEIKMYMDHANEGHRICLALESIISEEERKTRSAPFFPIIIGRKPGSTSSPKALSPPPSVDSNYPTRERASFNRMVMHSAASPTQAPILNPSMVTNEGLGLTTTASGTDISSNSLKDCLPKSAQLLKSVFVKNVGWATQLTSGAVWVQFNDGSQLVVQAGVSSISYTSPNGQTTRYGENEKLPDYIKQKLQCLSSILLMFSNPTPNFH
- assay_name: PLK4 NanoBRET target engagement assay
- condition_summary: HEK293 T cells transfected with PLK4 NanoLuc fusion vector; K-5 tracer; 2 hrs incubation
value_type: IC50 (nM)

{"smiles": "Cc1cc(Nc2nc(N(C)c3cc(F)c(S(C)(=O)=O)cc3F)nc(-c3cn4c(n3)CCOC4)c2C2CC2)n[nH]1", "value_type": "IC50", "recorded_measurement": 8}
{"smiles": "COc1c(Nc2cc(C)[nH]n2)nc(Oc2ccc(N(C)S(C)(=O)=O)cc2)nc1-c1cnn(C)c1", "value_type": "IC50", "recorded_measurement": 620}
{"smiles": "Cc1cc(Nc2nc(N(C)c3c(F)cc(S(C)(=O)=O)cc3F)nc(-c3cn(CCO)nc3C)c2C2CC2)n[nH]1", "value_type": "IC50", "recorded_measurement": 6}
{"smiles": "COc1c(Nc2cc(C)[nH]n2)nc(N(C)c2ccc(S(C)(=O)=O)cc2F)c(C#N)c1-c1cnn(C)c1", "value_type": "IC50", "recorded_measurement": 2000}

[a] Cc1cc(Nc2nc(N(C)c3c(F)cc(S(C)(=O)=O)cc3F)nc(-c3cnn(C)c3C(O)(O)C(F)(F)F)c2C2CC2)n[nH]1
[b] Cc1cc(Nc2nc(N(C)c3c(F)cc(S(C)(=O)=O)cc3F)nc(-c3cnn(CCO)c3C)c2C2CC2)n[nH]1
I would appreciate it if you could say which entry, a or b , has the lower IC50 value. # reply format: chosen label
b
(b: 7 nM, a: 94 nM)

====

- assay_target: PLK4 (Homo sapiens)
- assay_name: PLK4 NanoBRET target engagement assay
- condition_summary: HEK293 T cells transfected with PLK4 NanoLuc fusion vector; K-5 tracer; 2 hrs incubation
pIC50: −log10 of the molar value.
value_type: pIC50

// known answers, use as guide
{"smiles": "COc1c(Nc2cc(C)[nH]n2)nc(N(CC(=O)O)c2ccc(S(C)(=O)=O)cc2F)nc1-c1cnn(C)c1", "recorded_measurement": 5.27}
{"smiles": "COc1cc(Nc2nc(N(C)c3c(F)cc(S(C)(=O)=O)cc3F)nc(-c3cnn(C)c3)c2C2CC2)n[nH]1", "recorded_measurement": 7.62}
{"smiles": "COc1c(Nc2cc(C)[nH]n2)nc(N(C)c2c(F)cc(S(C)(=O)=O)cc2F)nc1-c1cnn(C)c1", "recorded_measurement": 8.22}
{"smiles": "COc1c(Nc2cc(C)[nH]n2)nc(N(C)c2ccc(C(C)(C)C#N)cc2)nc1-c1cnn(C)c1", "recorded_measurement": 7.00}
{"smiles": "Cc1cc(Nc2nc(N(C)c3c(F)cc(S(C)(=O)=O)cc3F)nc(-c3cn[nH]c3C3CC3)c2C2CC2)n[nH]1", "recorded_measurement": 8.30}

[a] Cc1cc(Nc2nc(Sc3ccc(S(C)(=O)=O)cc3F)cc(-c3cnn(C)c3)c2C2CC2)n[nH]1
[b] COc1c(Nc2cc(C)[nH]n2)nc(Nc2ccc(S(C)(=O)=O)cc2F)nc1-c1cnn(C)c1
Please tell me which of the two, a or b , has the higher reported pIC50 value. Use the label to indicate which entry you chose.
a
(a: 6.96, b: 6.66)

====

- assay_target: PLK4 (Homo sapiens, UniProt O00444)
- Sequence (O00444 1-970): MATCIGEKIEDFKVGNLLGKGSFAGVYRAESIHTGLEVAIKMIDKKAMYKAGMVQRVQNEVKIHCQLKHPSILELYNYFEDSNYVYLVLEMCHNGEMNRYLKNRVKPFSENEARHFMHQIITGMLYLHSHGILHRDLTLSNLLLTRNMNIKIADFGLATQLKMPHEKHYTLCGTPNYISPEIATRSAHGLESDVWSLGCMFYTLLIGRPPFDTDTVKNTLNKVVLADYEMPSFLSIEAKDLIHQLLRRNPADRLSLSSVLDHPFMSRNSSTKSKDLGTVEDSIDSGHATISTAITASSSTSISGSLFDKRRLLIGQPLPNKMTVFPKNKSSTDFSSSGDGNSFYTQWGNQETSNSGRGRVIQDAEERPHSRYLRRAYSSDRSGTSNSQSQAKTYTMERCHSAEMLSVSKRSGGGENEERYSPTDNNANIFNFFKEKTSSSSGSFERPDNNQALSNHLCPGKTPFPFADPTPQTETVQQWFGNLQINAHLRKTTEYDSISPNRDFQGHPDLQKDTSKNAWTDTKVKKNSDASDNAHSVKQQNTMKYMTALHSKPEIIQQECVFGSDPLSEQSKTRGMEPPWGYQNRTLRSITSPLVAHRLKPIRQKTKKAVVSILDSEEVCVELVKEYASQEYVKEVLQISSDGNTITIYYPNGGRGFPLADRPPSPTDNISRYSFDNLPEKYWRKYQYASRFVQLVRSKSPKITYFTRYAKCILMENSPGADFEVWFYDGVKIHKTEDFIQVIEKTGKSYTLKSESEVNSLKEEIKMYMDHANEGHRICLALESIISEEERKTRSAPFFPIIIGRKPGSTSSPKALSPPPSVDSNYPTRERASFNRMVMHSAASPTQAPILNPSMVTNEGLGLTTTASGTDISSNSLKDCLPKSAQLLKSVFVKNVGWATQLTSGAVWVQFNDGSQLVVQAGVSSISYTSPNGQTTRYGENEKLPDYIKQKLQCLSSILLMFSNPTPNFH
- assay_name: PLK4 NanoBRET target engagement assay
- condition_summary: HEK293 T cells transfected with PLK4 NanoLuc fusion vector; K-5 tracer; 2 hrs incubation
pIC50: −log10 of the molar value.
value_type: pIC50

{"smiles": "Cc1cc(Nc2nc(N(C)c3c(F)cc(S(C)(=O)=O)cc3F)nc(-c3cn4c(n3)CCC4)c2C2CC2)n[nH]1", "pIC50": 8.52}
{"smiles": "Cc1cc(Nc2nc(N(C)c3c(F)cc(S(C)(=O)=O)cc3F)nc(-c3cnn(C)n3)c2C2CC2)n[nH]1", "pIC50": 7.82}
{"smiles": "Cc1cc(Nc2nc(N(C)c3c(F)cc(S(C)(=O)=O)cc3F)nc(-c3nn(C)cc3CO)c2C2CC2)n[nH]1", "pIC50": 7.28}

[1] Cc1cc(Nc2nc(N(C)c3c(F)cc(S(C)(=O)=O)cc3F)nc(-c3cn(C)nc3C(N)=O)c2C2CC2)n[nH]1
[2] COc1c(Nc2cc(C)[nH]n2)nc(N2CCc3cc(S(C)(=O)=O)ccc32)nc1-c1cnn(C)c1
# compare pIC50 for 1 vs 2 ; return the one with the smaller value Answer by stating the label of the chosen item.
2
(2: 5.96, 1: 6.51)

[A] COc1c(Nc2cc(C)[nH]n2)nc(N(C)c2ccc(CN(C(C)=O)c3ccccc3)cc2F)nc1-c1cnn(C)c1
[B] CN(c1nc(Nc2cc(C3CC3)[nH]n2)c(C2CC2)c(-c2cnn(C)c2C(N)=O)n1)c1c(F)cc(S(C)(=O)=O)cc1F
[C] Cc1cc(Nc2nc(N(C)c3c(F)cc(S(C)(=O)=O)cc3F)nc(-c3cnn4c3CC(C)(C)C4)c2C2CC2)n[nH]1
Rank items: key pIC50, increasing. The reply should contain the labels ordered as requested.
A, C, B
(A: 6.11, C: 7.89, B: 8.40)

[1] COCCCS(=O)(=O)c1ccc(N(C)c2nc(Nc3cc(C)[nH]n3)c(OC)c(-c3cnn(C)c3)n2)cc1
[2] Cc1cc(Nc2nc(N(C)c3ccc(S(C)(=O)=O)cc3F)nc(-c3cnn4cccnc34)c2C2CC2)n[nH]1
Could you please tell me which of these two has the higher pIC50: 1 or 2 ? State the label of the item chosen.
2
(2: 7.80, 1: 6.57)
